System: MCF7
Assay: Antiproliferative activity against human MCF7 cells assessed as cell growth inhibition measured after 48 hrs by MTT assay
Type: functional, cell-based
The source made the active and inactive calls. The rule behind the calls is not given here.
Endpoint: Activity

> print(dat)
                               input.smiles  assayed.target  recorded.result
1  CC(C)[C@@H](C)/C=C/[C@@H](C)[C@H]1CCC2=C3C=CC4=CC(=O)CC[C@]4(C)[C@H]3CC[C@@]21C            MCF7         inactive
2  C=C1CCC(=O)[C@@]2(C)CC[C@H](C(C)(C)O)C[C@H]12            MCF7         inactive
3  C=C1C[C@@H](O)C[C@@]2(C)CC[C@H](C(C)(C)O)C[C@H]12            MCF7         inactive
4   CC1=C2C[C@@H](C(C)(C)O)CC[C@]2(C)CCC1=O            MCF7         inactive
5  CC(C)[C@H](C)/C=C/[C@@H](C(=O)O)[C@H]1CCC2=C3C=C[C@H]4CC(=O)CC[C@]4(C)[C@H]3CC[C@@]21C            MCF7         inactive
6  CC[C@H](CC[C@@H](C)[C@H]1CC[C@H]2[C@@H]3CC=C4C[C@@H](O)CC[C@]4(C)[C@H]3CC[C@]12C)C(C)C            MCF7         inactive
7  C[C@H]1CCC(=O)[C@@]2(C)CCC(C(C)(C)O)=C[C@H]12            MCF7         inactive
8  C[C@H]1CCC(=O)[C@@]2(C)CC=C(C(C)(C)O)C[C@H]12            MCF7         inactive
9  CC(=O)OCC(=O)[C@H]1CC[C@]2(C)CCC=C(C)[C@H]2C1            MCF7         inactive
